System: macrophage RAW264.7 cells
Experiment: Cell viability CCK8, RAW264.7 cells
Assay type: cell-based
Settings: 48 hrs
Metric: CC50

>>> readout_value("CC(=O)OC[C@H]1O[C@@H]([S-])[C@H](OC(C)=O)[C@@H](OC(C)=O)[C@@H]1OC(C)=O.CCP(CC)CC.[Au+]")
"~2630 nM"

###

Tested on: Vero E6 cell
Assay: Cell viability CCK8, Vero E6 cells
Type: cell-based
Settings: 48 hrs
Metric: CC50

>>> readout_value("CC(=O)OC[C@H]1O[C@@H]([S-])[C@H](OC(C)=O)[C@@H](OC(C)=O)[C@@H]1OC(C)=O.CCP(CC)CC.[Au+]")
"~2270 nM"
